Each recorded value in this set is attributed to patent US12583859B2.

# protocol-details: Water solubility of mesylate salt
# Assay type: physicochemical
# cond: in water
property-label: solubility

Nc1nc2cc(C3C[C@@]4(CO3)C[C@@H](n3ccc5c(N)ncnc53)[C@H](O)[C@@H]4O)ccc2cc1Br (single isomer, unassigned) [Compound 15] :: ~3000 µg/mL

----------
# protocol-details: Caco-2 Assay (Papp A to B)
# Assay type: in vitro ADME
# cond: human, pH 7.4
property-label: Papp A→B at 2 h, 2 μM

Nc1nc2cc(C3C[C@@]4(CN3)C[C@@H](n3ccc5c(Cl)ncnc53)[C@H](O)[C@@H]4O)ccc2cc1Br (single isomer, unassigned) [Compound 9] :: < 0.2 ×10⁻⁶ cm/s
Nc1nc2cc(C3C[C@@]4(CO3)C[C@@H](n3ccc5c(Cl)ncnc53)[C@H](O)[C@@H]4O)ccc2cc1Br (some centres unmarked) [Compound 17] :: 0.2 to 0.99 ×10⁻⁶ cm/s
CCNc1ncnc2c1ccn2[C@@H]1C[C@@]2(CO[C@@H](c3ccc4cc(Br)c(N)nc4c3)C2)[C@@H](O)[C@H]1O [Compound 24] :: ≥ 1 ×10⁻⁶ cm/s
Nc1nc2cc([C@H]3C[C@@]4(CO3)C[C@@H](n3ccc5cncnc53)[C@H](O)[C@@H]4O)ccc2cc1Br [Compound 22] :: ≥ 1 ×10⁻⁶ cm/s
Nc1nc2cc(C3C[C@@]4(CN3)C[C@@H](n3ccc5c(N)ncnc53)[C@H](O)[C@@H]4O)ccc2cc1Br (single isomer, unassigned) [Compound 8] :: < 0.2 ×10⁻⁶ cm/s
Cc1ncnc2c1ccn2[C@@H]1C[C@@]2(CO[C@@H](c3ccc4cc(Br)c(N)nc4c3)C2)[C@@H](O)[C@H]1O [Compound 19] :: ≥ 1 ×10⁻⁶ cm/s
CNc1ncnc2c1ccn2[C@@H]1C[C@@]2(CO[C@@H](c3ccc4cc(Br)c(N)nc4c3)C2)[C@@H](O)[C@H]1O [Compound 23] :: 0.2 to 0.99 ×10⁻⁶ cm/s
Nc1nc2cc(C3C[C@@]4(CO3)C[C@@H](n3ccc5c(N)ncnc53)[C@H](O)[C@@H]4O)ccc2cc1Br (single isomer, unassigned) [Compound 15] :: < 0.2 ×10⁻⁶ cm/s

----------
Heads up, these molecules all have IC50 values measured for PRMT5 (Homo sapiens).
property-label: IC50

Nc1nc2cc(C3C[C@@]4(CO3)C[C@@H](n3ccc5c(N)ncnc53)[C@H](O)[C@@H]4O)ccc2cc1Br (single isomer, unassigned) [Compound 16] :: ≤ 0.1 µM
CCCNc1ncnc2c1ccn2[C@@H]1C[C@@]2(CO[C@@H](c3ccc4cc(Br)c(N)nc4c3)C2)[C@@H](O)[C@H]1O [Compound 26] :: ≤ 0.1 µM
Nc1ncnc2c1ccn2[C@@H]1C[C@@]2(CNC(c3ccc4cc(Br)c(Cl)nc4c3)C2)[C@@H](O)[C@H]1O (single isomer, unassigned) [Compound 4] :: 0.101 to 0.5 µM
Nc1nc2cc(C3C[C@@]4(CN3)C[C@@H](n3ccc5c(Cl)ncnc53)[C@H](O)[C@@H]4O)ccc2cc1Br (single isomer, unassigned) [Compound 10] :: 0.101 to 0.5 µM
CNc1ncnc2c1ccn2[C@@H]1C[C@@]2(CO[C@@H](c3ccc4cc(Br)c(N)nc4c3)C2)[C@@H](O)[C@H]1O [Compound 23] :: ≤ 0.1 µM
CC(C)Nc1ncnc2c1ccn2[C@@H]1C[C@@]2(CO[C@@H](c3ccc4cc(Br)c(N)nc4c3)C2)[C@@H](O)[C@H]1O [Compound 25] :: ≤ 0.1 µM
